# system name: SFRP-1 (Homo sapiens, UniProt Q8N474)
# test protocol: Cell-based assay for in vitro measurement of SFRP-1/SARP2 antagonist activity (U2OS cells co-transfected with 16x TCF-tk-Luciferase reporter, Wnt and hSFRP-1)
# measurement parameters: U2OS, read-out: Fold Induction without SFRP-1, Conc 15 μM; single dose; luciferase reporter; cells without SFRP-1 (specificity control)
readout kind: fold induction at 15 µM

>>> meas_value("Cc1ccc(S(=O)(=O)c2ccccc2)cc1S(=O)(=O)NC1CCN(C(=O)N(C)C)CC1")
0.9
>>> meas_value("CC(C)c1ccc(S(=O)(=O)c2ccc(NCCC#N)cc2)cc1S(=O)(=O)NC1CCOCC1")
1.2
>>> meas_value("Cc1ccc(S(=O)(=O)c2ccccc2)cc1S(=O)(=O)NC1CCN(C(=O)N2CCOCC2)CC1")
1
>>> meas_value("CC(C)c1ccc(S(=O)(=O)c2ccc(N(C)CCC#N)cc2)cc1S(=O)(=O)NCC1CCOCC1")
1.3

----------
# system name: SFRP-1 (Homo sapiens, UniProt Q8N474)
# Sequence (Q8N474 32-314): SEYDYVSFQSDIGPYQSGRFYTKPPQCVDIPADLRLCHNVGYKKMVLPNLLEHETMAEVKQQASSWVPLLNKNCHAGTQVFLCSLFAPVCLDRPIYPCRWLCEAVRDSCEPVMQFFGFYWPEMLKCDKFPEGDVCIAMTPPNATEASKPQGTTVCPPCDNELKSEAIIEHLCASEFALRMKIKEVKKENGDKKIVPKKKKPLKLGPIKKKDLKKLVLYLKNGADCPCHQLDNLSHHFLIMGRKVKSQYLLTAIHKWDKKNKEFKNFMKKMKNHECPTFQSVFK
# test protocol: Cell-based assay for in vitro measurement of SFRP-1/SARP2 antagonist activity (U2OS cells co-transfected with 16x TCF-tk-Luciferase reporter, Wnt and hSFRP-1)
# measurement parameters: U2OS, read-out: Fold Induction without SFRP-1, Conc 15 μM; without SFRP-1, single dose
readout kind: fold induction at 15 µM

>>> meas_value("COc1ccccc1C(=O)N1CCC(NS(=O)(=O)c2cc(S(=O)(=O)c3ccccc3)ccc2C)CC1 [Example 462]")
1
>>> meas_value("Cc1ccc([S+]([O-])c2ccccc2)cc1S(=O)(=O)NCCCn1ccnc1 (stereo not shown) [Example 346]")
1.3
>>> meas_value("CCc1ccc(S(=O)(=O)c2ccc(F)cc2)cc1S(=O)(=O)NCCCn1ccnc1 [Example 303]")
0.8
>>> meas_value("Cc1ccc(S(=O)(=O)c2ccccc2)cc1S(=O)(=O)NCCN1CCCCC1 [Example 209]")
1.3

----------
# system name: SFRP-1 (Homo sapiens, UniProt Q8N474)
# Sequence (Q8N474 32-314): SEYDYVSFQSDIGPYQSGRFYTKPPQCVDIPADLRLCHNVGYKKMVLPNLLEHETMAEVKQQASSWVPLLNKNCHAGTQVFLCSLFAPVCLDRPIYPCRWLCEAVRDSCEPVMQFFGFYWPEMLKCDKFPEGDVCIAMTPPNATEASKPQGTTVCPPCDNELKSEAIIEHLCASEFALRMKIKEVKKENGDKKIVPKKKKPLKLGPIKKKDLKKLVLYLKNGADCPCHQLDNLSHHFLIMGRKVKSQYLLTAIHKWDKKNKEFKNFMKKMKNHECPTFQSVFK
# test protocol: Fluorescence polarization binding assay (competitive displacement of a probe compound from SFRP-1);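 note: test compound competes with a fluorescent probe held by SFRP-1, seen as a drop in probe anisotropy after incubation in darkness, with anisotropy as function of rising compound dose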
# measurement parameters: fluorescence anisotropy, 45 nM SFRP-1, 20 nM probe
pIC50: −log10 of the molar value.
readout kind: pIC50

>>> meas_value("O=C(c1ccc(C(F)(F)F)cc1F)N1CCC(NS(=O)(=O)c2cc(S(=O)(=O)c3ccccc3)ccc2C(F)(F)F)CC1")
6.15
>>> meas_value("CN(CCNS(=O)(=O)c1cc(S(=O)(=O)c2ccccc2)ccc1C(F)(F)F)C(=O)Oc1cccc(C(F)(F)F)c1")
6.22
>>> meas_value("Cc1ccc(S(=O)(=O)c2ccc(N3CCOCC3)cc2)cc1S(=O)(=O)NCCCn1ccnc1")
6.30
>>> meas_value("O=S(=O)(NCCc1ccc[n+]([O-])c1)c1cc(S(=O)(=O)c2ccccc2)ccc1C(F)(F)F")
6.70
>>> meas_value("COc1ccc(S(=O)(=O)c2ccc(C)c(S(=O)(=O)NCCc3ccccn3)c2)c(OC)c1")
5.00
>>> meas_value("O=S(=O)(N[C@H]1CCCNC1)c1cc(S(=O)(=O)c2ccccc2)ccc1C(F)(F)F")
5.70
>>> meas_value("COC(=O)c1ccc(CNS(=O)(=O)c2cc(S(=O)(=O)c3ccccc3)ccc2C(F)(F)F)cc1")
5.74
>>> meas_value("C[C@@H](NS(=O)(=O)c1cc(S(=O)(=O)c2ccccc2)ccc1C(F)(F)F)[C@H](O)c1ccccc1 (relative stereo)")
6.00
>>> meas_value("CC(C)COC(=O)N(C)CCNS(=O)(=O)c1cc(S(=O)(=O)c2ccccc2)ccc1C(F)(F)F")
6.10
>>> meas_value("O=S(=O)(N[C@H](CO)Cc1c[nH]c2ccccc12)c1cc(S(=O)(=O)c2ccccc2)ccc1C(F)(F)F")
5.70
>>> meas_value("CCCc1ccc(S(=O)(=O)c2ccccc2)cc1S(=O)(=O)NC1CCOCC1")
6.00
>>> meas_value("O=S(=O)(NC1Cc2ccccc2C1O)c1cc(S(=O)(=O)c2ccccc2)ccc1C(F)(F)F (stereo not drawn)")
7.10

----------
# system name: SFRP-1 (Homo sapiens)
# Sequence (Q8N474 32-314): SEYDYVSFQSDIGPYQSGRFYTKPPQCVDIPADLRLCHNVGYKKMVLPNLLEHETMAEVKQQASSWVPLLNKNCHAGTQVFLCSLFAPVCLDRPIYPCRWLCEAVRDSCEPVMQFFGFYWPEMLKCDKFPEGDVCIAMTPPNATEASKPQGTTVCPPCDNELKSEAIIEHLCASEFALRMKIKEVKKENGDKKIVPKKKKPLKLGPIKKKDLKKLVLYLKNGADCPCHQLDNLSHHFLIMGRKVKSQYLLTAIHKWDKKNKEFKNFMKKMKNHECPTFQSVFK
# test protocol: Cell-based assay for in vitro measurement of SFRP-1/SARP2 antagonist activity (U2OS cells co-transfected with 16x TCF-tk-Luciferase reporter, Wnt and hSFRP-1)
# measurement parameters: U2OS, read-out: Fold Induction without SFRP-1, Conc 30 μM; without SFRP-1, single dose
Listed next: entries and their corresponding fold induction at 30 µM.
readout kind: fold induction at 30 µM

>>> meas_value("O=S(=O)(NCCc1c[nH]cn1)c1cccc(S(=O)(=O)c2ccccc2)c1 [Example 189]")
1
>>> meas_value("CN(C)CCCNS(=O)(=O)c1cccc(S(=O)(=O)c2ccccc2)c1 [Example 196]")
1.3
>>> meas_value("CN1CCN(CCCNS(=O)(=O)c2cccc(S(=O)(=O)c3ccccc3)c2)CC1 [Example 201]")
1.2
>>> meas_value("O=S(=O)(NCCN1CCCCC1)c1cccc(S(=O)(=O)c2ccccc2)c1 [Example 188]")
1.4
>>> meas_value("CN(C)CCNS(=O)(=O)c1cccc(S(=O)(=O)c2ccccc2)c1 [Example 194]")
1.2
>>> meas_value("Cc1ccc(S(=O)(=O)c2ccccc2)cc1S(=O)(=O)NCCc1ccc(S(N)(=O)=O)cc1 [Example 40]")
0.9
>>> meas_value("Cc1ccc(S(=O)(=O)c2ccccc2)cc1S(=O)(=O)NCCc1ccccc1F [Example 53]")
0.4
>>> meas_value("COc1cccc(CCNS(=O)(=O)c2cc(S(=O)(=O)c3ccccc3)ccc2C)c1 [Example 33]")
0.4
>>> meas_value("O=C(O)CCNS(=O)(=O)c1cccc(S(=O)(=O)c2ccccc2)c1 [Example 202]")
1.2

----------
# system name: SFRP-1 (Homo sapiens, UniProt Q8N474)
# test protocol: Cell-based assay for in vitro measurement of SFRP-1/SARP2 antagonist activity (U2OS cells co-transfected with 16x TCF-tk-Luciferase reporter, Wnt and hSFRP-1);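 note: U2OS cells co-transfected with a TCF-tk luciferase reporter, a Wnt vector, hSFRP-1 or empty vector and CMV-βgal, luciferase luminescence read in cell lysates alongside βgal activity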
# measurement parameters: U2OS, read-out: Fold Induction without SFRP-1, Conc 15 μM; single dose; luciferase reporter; cells without SFRP-1 (specificity control)
Listed next: entries and their corresponding fold induction at 15 µM.
readout kind: fold induction at 15 µM

>>> meas_value("C#CCOC(=O)N1CCC(NS(=O)(=O)c2cc(S(=O)(=O)c3ccccc3)ccc2C)CC1")
1.1
>>> meas_value("CC(C)c1ccc(S(=O)(=O)c2ccc3[nH]ccc3c2)cc1S(=O)(=O)NCCc1ccccn1")
1.2
>>> meas_value("CC(C)c1cc(C(C)C)c(S(=O)(=O)c2ccc(F)cc2)cc1S(=O)(=O)NCC1CCOCC1")
1
>>> meas_value("CC(C)c1ccc(S(=O)(=O)c2ccc(F)cc2)cc1S(=O)(=O)NC1CCN(C(=O)c2ccc(C#N)cc2)CC1")
1.1
>>> meas_value("CCOC(=O)N1CCC(NS(=O)(=O)c2cc(S(=O)(=O)c3ccc(F)cc3)ccc2C(C)C)CC1")
1.1
>>> meas_value("COc1cccc(S(=O)(=O)c2ccc(Cl)c(S(=O)(=O)NC3CCOCC3)c2)c1")
1
>>> meas_value("CCCc1ccc(S(=O)(=O)c2ccc(F)cc2)cc1S(=O)(=O)NC1CCOCC1")
0.9
>>> meas_value("O=S(=O)(NC1CCOCC1)c1cc(S(=O)(=O)c2ccccc2)ccc1C(F)(F)F")
1.1
